System: BT-549
procedure_text: Growth inhibition of human BT549 cells after 48 hrs by sulforhodamine B assay
Format: functional
measurement_context: BT-549, 48 h, read-out: pTGI (converted)
Binarize TGI at 30 µM; below is 1 (yes), at or above is 0 (no).

{"line_notation": "Nc1cc(N)c2nc(-c3ccccc3)c(NCc3ccc(F)cc3)nc2c1", "answer_label": "1 (yes)"}
{"line_notation": "COc1ccc(CNc2nc3cc(N)cc(N)c3nc2-c2ccccc2)cc1OC", "answer_label": "0 (no)"}
{"line_notation": "COc1cc(CNc2nc3cc(N)cc(N)c3nc2-c2ccccc2)cc(OC)c1", "answer_label": "0 (no)"}
{"line_notation": "Nc1cc(N)c2nc(-c3ccccc3)c(Oc3ccc(F)cc3)nc2c1", "answer_label": "0 (no)"}
{"line_notation": "COc1cc(OC)cc(Oc2nc3cc(N)cc(N)c3nc2-c2ccccc2)c1", "answer_label": "1 (yes)"}
{"line_notation": "Nc1cc(N)c2nc(-c3ccccc3)c(Sc3ccc(F)cc3)nc2c1", "answer_label": "0 (no)"}

Does this compound meet the criterion TGI < 30 µM? COc1ccc(Oc2nc3cc(N)cc(N)c3nc2-c2ccccc2)cc1 0 (no)

Do the same for COc1cc(CNc2nc3cc(N)cc(N)c3nc2-c2ccccc2)cc(OC)c1OC please 1 (yes)

====

Tested on: MOLT-4
procedure_text: Growth inhibition of human MOLT4 cells after 48 hrs by sulforhodamine B assay
Format: functional
measurement_context: MOLT-4, 48 h
parameter: LC50

{"line_notation": "COc1cc(CNc2nc3cc(N)cc(N)c3nc2-c2ccccc2)cc(OC)c1OC", "LC50": "> 50.1 µM"}
{"line_notation": "Nc1cc(N)c2nc(-c3ccccc3)c(Oc3ccc(F)cc3)nc2c1", "LC50": "> 100 µM"}
{"line_notation": "COc1ccc(Oc2nc3cc(N)cc(N)c3nc2-c2ccccc2)cc1", "LC50": "> 100 µM"}
{"line_notation": "Nc1cc(N)c2nc(-c3ccccc3)c(NCc3ccc(Cl)c(Cl)c3)nc2c1", "LC50": "> 100 µM"}
{"line_notation": "Nc1cc(N)c2nc(-c3ccccc3)c(Oc3ccc(Cl)c(Cl)c3)nc2c1", "LC50": "> 100 µM"}

API: the following record is the query input.
Entry COc1ccc(Sc2nc3cc(N)cc(N)c3nc2-c2ccccc2)cc1 has what LC50? > 100 µM

====

Tested on: NCI-H460
procedure_text: Growth inhibition of human NCI-H460 cells after 48 hrs by sulforhodamine B assay
Type: functional
measurement_context: NCI-H460, 48 h
parameter: log10 of GI50 (log10 of the value in µM)
Would you kindly interpret these values as log10 of GI50 expressed in µM?

Take a look at these entries with their results.
{"line_notation": "COc1ccc(Oc2nc3cc(N)cc(N)c3nc2-c2ccccc2)cc1", "log10 of GI50": 1.49}
{"line_notation": "Nc1cc(N)c2nc(-c3ccccc3)c(Oc3ccc(F)cc3)nc2c1", "log10 of GI50": 1.60}
{"line_notation": "COc1ccc(CNc2nc3cc(N)cc(N)c3nc2-c2ccccc2)cc1OC", "log10 of GI50": 1.38}
{"line_notation": "COc1cc(CNc2nc3cc(N)cc(N)c3nc2-c2ccccc2)cc(OC)c1OC", "log10 of GI50": 0.18}
{"line_notation": "COc1ccc(CNc2nc3cc(N)cc(N)c3nc2-c2ccccc2)cc1", "log10 of GI50": 1.31}

Any idea what log10 of GI50 came out for Nc1cc(N)c2nc(-c3ccccc3)c(Oc3ccc(Cl)c(Cl)c3)nc2c1 on NCI-H460? 1.26

What would you report for COc1cc(CNc2nc3cc(N)cc(N)c3nc2-c2ccccc2)cc(OC)c1 ? 1.02

Same for Nc1cc(N)c2nc(-c3ccccc3)c(NCc3ccc(Cl)c(Cl)c3)nc2c1 1.32

Ok, now Nc1cc(N)c2nc(-c3ccccc3)c(Sc3ccc(F)cc3)nc2c1 1.34

Then what about the compound COc1cc(OC)cc(Oc2nc3cc(N)cc(N)c3nc2-c2ccccc2)c1 ? 0.47

// same read-out, input: Nc1cc(N)c2nc(-c3ccccc3)c(NCc3ccc(F)cc3)nc2c1 0.61

Now consider COc1ccc(Sc2nc3cc(N)cc(N)c3nc2-c2ccccc2)cc1 . 1.30

Same again, this time with Nc1cc(N)c2nc(-c3ccccc3)c(Sc3ccc(Cl)c(Cl)c3)nc2c1 1.02
